inhibition at 10 µg/mL values, listed per item
Tested on: Ileum
assay.explanation: Inhibition of acetylcholine-induced contraction in guinea pig ileum at 10 ug/ml
Type: functional, Cavia porcellus
test.parameters: Cavia porcellus, Ileum
Give a bare numeral; the unit % is implied.

Sample CCC(C(=O)NO)C(CO)Cc1c[n+](CC)cn1C (configuration not stated) ; inhibition at 10 µg/mL observed: 55

----------
fold change (FC) values, listed per item
Tested on: Ileum
assay.explanation: Toxicity in guinea pig ileum assessed as spasmogenic activity relative to 0.6 ug/ml pilocarpine
Format: tissue-based, Cavia porcellus
test.parameters: ex_vivo

Reference set (5 entries):
[[record]]
molecule = "CCC(C(=O)NO)C(CO)Cc1c[n+](C/C(=N\\O)c2ccc([N+](=O)[O-])cc2)cn1C.[Br-] (stereo not drawn)"
measurement_name = "fold change (FC)"
result = 0.01

[[record]]
molecule = "CCC1C(=O)OCC1Cc1c[n+](CCOC(C)=O)cn1C.[Br-] (stereo not drawn)"
measurement_name = "fold change (FC)"
result = 0.1

[[record]]
molecule = "CCC(C(=O)NO)C(CO)Cc1c[n+](CC(=O)c2ccc([N+](=O)[O-])cc2)cn1C.[Br-] (stereo not drawn)"
measurement_name = "fold change (FC)"
result = 0.1

[[record]]
molecule = "CCC1C(=O)OCC1Cc1c[n+](CC(=O)c2ccc([N+](=O)[O-])cc2)cn1C.[Br-] (stereo not drawn)"
measurement_name = "fold change (FC)"
result = 0.01

[[record]]
molecule = "CCC1C(=O)OCC1Cc1c[n+](CCCO)cn1C.[Br-] (stereo not drawn)"
measurement_name = "fold change (FC)"
result = 0.05


Sample CCC1C(=O)OCC1Cc1c[n+](CCO)cn1C.[Br-] (stereo not drawn) ; fold change (FC) observed: 0.1

Sample CC[C@H]1C(=O)OC[C@@H]1Cc1cncn1C ; fold change (FC) observed: 0.02

Sample CCC1C(=O)OCC1Cc1c[n+](CCCOC(C)=O)cn1C.[Br-] (stereo not drawn) ; fold change (FC) observed: 0.05

----------
Tested on: Ileum
assay.explanation: Inhibition of acetylcholine-induced contraction in guinea pig ileum at 10 ug/ml
Format: functional, Cavia porcellus
test.parameters: Cavia porcellus, Ileum
Param threshold (90%) applies to inhibition at 10 µg/mL; output yes (1) when value >= threshold, no (0) when value < threshold.

Answered cases to consult:
[[record]]
molecule = "CCC1C(=O)OCC1Cc1c[n+](CC(=O)c2ccc(-c3ccccc3)cc2)cn1C (stereo unspecified)"
label_value = "yes (1)"

[[record]]
molecule = "CCC(C(=O)NO)C(CO)Cc1c[n+](Cc2ccc(C)cc2)cn1C (stereo unspecified)"
label_value = "no (0)"

[[record]]
molecule = "CCC1C(=O)OCC1Cc1c[n+](C/C(=N\\O)c2ccccc2)cn1C (stereo unspecified)"
label_value = "no (0)"

[[record]]
molecule = "CCC(C(=O)NO)C(CO)Cc1c[n+](Cc2ccc(Cl)c(Cl)c2)cn1C (stereo unspecified)"
label_value = "no (0)"

[[record]]
molecule = "CCC(C(=O)NO)C(CO)Cc1c[n+](C/C(=N\\O)c2ccc(-c3ccccc3)cc2)cn1C (stereo unspecified)"
label_value = "no (0)"


Lookup: // inclusive: inhibition at 10 µg/mL at least 90%? input: CCC(C(=O)NO)C(CO)Cc1c[n+](C/C(=N\O)c2ccc(Br)cc2)cn1C (stereo unspecified)
Found: no (0)

Lookup: // inclusive: inhibition at 10 µg/mL at least 90%? input: CCC(C(=O)NO)C(CO)Cc1c[n+](Cc2ccc(Br)cc2)cn1C (stereo unspecified)
Found: yes (1)

Lookup: // inclusive: inhibition at 10 µg/mL at least 90%? input: CCC(C(=O)NO)C(CO)Cc1c[n+](CC(=O)c2ccc(Br)cc2)cn1C (stereo unspecified)
Found: no (0)

Lookup: // inclusive: inhibition at 10 µg/mL at least 90%? input: CCC1C(=O)OCC1Cc1c[n+](C/C(=N\O)c2ccc(-c3ccccc3)cc2)cn1C (stereo unspecified)
Found: yes (1)

Source listed as ChEMBL document CHEMBL3272021.
